# System: Vero E6
# Test Summary: cell viability relative to DMSO; higher = less toxic
# Condition Summary: 72 h; 100 nM
Measurement Label: cell viability (%)
Answers are plain numbers, in %.

| Smi | Value Unit | cell viability |
| --- | --- | --- |
| COc1cc(-c2cc(-c3cccc(O)c3)cnc2N)cc(OC)c1OC | % | 97.4 |
| c1ccc(Oc2nc(NC3CCCCC3)c3[nH]cnc3n2)cc1 | % | 93.5 |
| Cc1cc(Nc2nc(N[C@@H](C)c3ncc(F)cn3)ncc2Cl)[nH]n1 | % | 95.9 |
| COc1cc(OC)nc(O[C@H](C(=O)O)C(OC)(c2ccccc2)c2ccccc2)n1 | % | 97.2 |

Give its cell viability value. Item: C=C(C)[C@@H]1[C@H]2OC(=O)[C@@H]1[C@]1(O)C[C@H]3O[C@]34C(=O)O[C@H]2[C@]14C
97.5

###

What cell viability was measured for each of the following?
# Test system: U2OS
# Test Summary: cell viability relative to DMSO; higher = less toxic
# Condition Summary: 72 h; 1 nM
One number for each entry, in %.

Here is how some compounds turned out for cell viability.
| Compound | Reported Value |
| --- | --- |
| CN(C)CCCOc1nn(Cc2ccccc2)c2ccccc12 | 101 |
| C[C@]12CC[C@H](O)CC1=CC[C@@H]1[C@@H]2CC[C@]2(C)C(n3cnc4ccccc43)=CC[C@@H]12 | 96.4 |
| O=C(O)C1=CCCN(CCON=C(c2ccccc2)c2ccccc2)C1 | 98.7 |
| CN1C[C@@H](NS(=O)(=O)N(C)C)C[C@@H]2c3cccc4c3c(cn4C)C[C@H]21 | 103 |
| COc1cc(C(=S)N2CCOCC2)ccc1O [vanitiolide] | 104 |

// batch mode: one cell viability value per listed entry
1. CC#C[C@@H](CC(=O)O)c1ccc(OCc2cccc(-c3ccc(C(F)(F)F)cc3)c2)cc1
2. COc1cc(N2CCN(C)CC2)ccc1Nc1nccc(-c2cn(C)c3cnccc23)n1
3. COC(=O)N[C@@H](C)CNc1nccc(-c2cn(C(C)C)nc2-c2cc(Cl)cc(NS(C)(=O)=O)c2F)n1

1. 101
2. 97.9
3. 101

###

Would you mind telling me the reported drug sensitivity score of each entry?
# Tested on: Vero E6
# Test Summary: drug sensitivity score (DSS) for viability; higher = more toxic; extreme values may be limits of the assay
# Condition Summary: 72 h
One number for each entry.

A selection of reference data follows.
| Compound | Reported Value |
| --- | --- |
| COc1cc2c(Nc3ccc(Cl)c(Cl)c3F)ncnc2cc1OC[C@@H]1C[C@@H]2CN(C)C[C@@H]2C1 | 13.6 |
| C=C[C@@](C)(/C=C/c1ccc(O)cc1)CCC=C(C)C | 0 |
| CC(C)c1ccc(C(=O)c2cccs2)c(SCCCCCCCCN(C)C)n1 | 1.4 |
| CC(CN(C)C)CN1c2ccccc2CCc2ccccc21 (stereo unspecified) | 0 |
| CC(COc1ccccc1)NC(C)C(O)c1ccc(O)cc1 (stereo unspecified) | 0 |

For each of the compounds below, state drug sensitivity score.
1. Cc1ccccc1N(C)C(=O)c1ccc([S+]([O-])c2nccs2)c([N+](=O)[O-])c1 (stereo unspecified)
2. O=C(O)CC1CC(c2ccccc2)=NO1 (stereo unspecified)
3. CSc1cc2c(cc1C(F)(F)F)N(C(=O)Nc1cccnc1)CC2
4. Cc1c(O)c(=O)n(-c2ccccc2)n1C [4-hydroxy-phenazone]
5. CC(C)C[C@@H](NC(=O)[C@H](C)NC(=O)CNC(=O)[C@@H](NC=O)C(C)C)C(=O)N[C@@H](C)C(=O)N[C@@H](C(=O)N[C@H](C(=O)N[C@@H](C(=O)N[C@@H](Cc1c[nH]c2ccccc12)C(=O)N[C@H](CC(C)C)C(=O)N[C@@H](Cc1c[nH]c2ccccc12)C(=O)N[C@H](CC(C)C)C(=O)N[C@@H](Cc1c[nH]c2ccccc12)C(=O)N[C@H](CC(C)C)C(=O)N[C@@H](Cc1c[nH]c2ccccc12)C(=O)NCCO)C(C)C)C(C)C)C(C)C
6. O=c1[nH]c2cc(C(F)(F)F)c(N3CCOCC3)cc2n(CP(=O)(O)O)c1=O
7. C=C[C@@H]1C[C@]1(NC(=O)[C@@H]1C[C@@H](Oc2ncc(OC)c3ccc(Cl)cc23)CN1C(=O)[C@@H](NC(=O)OC(C)(C)C)C(C)(C)C)C(=O)NS(=O)(=O)C1CC1

[7.5, 0, 0, 0, 0, 0, 0]

###

# System: Vero E6
# Test Summary: cell viability relative to DMSO; higher = less toxic
# Condition Summary: 72 h; 10000 nM
Counter-ions that a name gives are not always drawn.
Measurement Label: cell viability (%)
Answers are plain numbers, in %.

Quick batch: cell viability for everything below.
1. CC(C)(CO)CCCCCCC(C)(C)CO [gemcadiol]
2. CCCCn1ccc(N2CCC(c3ccccc3)CC2)c(Cl)c1=O

1: 108; 2: 97.2

I have 7 molecules here; please give me cell viability for each one.
1. O=C(O)CC1CC(c2ccccc2)=NO1 (centres undefined) [VGX-1027]
2. NCCCCCC(O)(P(=O)(O)O)P(=O)(O)O [neridronic-acid]
3. C[C@H]1CO[C@@H]2Cn3cc(C(=O)NCc4ccc(F)cc4F)c(=O)c(O)c3C(=O)N12
4. CCCCCCCCCCCCCCCCCCOP(=O)([O-])OC1CC[N+](C)(C)CC1 [perifosine]
5. CC(NC(C)(C)C)C(=O)c1cccc(Cl)c1 (centres undefined) [bupropion]
6. CC(c1cc2ccccc2s1)N(O)C(N)=O (centres undefined) [zileuton]
7. C=CCN1CC[C@]23c4c5ccc(O)c4O[C@H]2C(=O)CC[C@@]3(O)[C@H]1C5 [NALOXONE HYDROCHLORIDE]

[102, 96.8, 89.6, 101, 81.7, 99.7, 100]

###

# System: Caco-2
# Test Summary: cell viability relative to DMSO; higher = less toxic
# Condition Summary: 72 h; 100 nM
Please respond with reported cell viability for every item in the list.
Numbers only, in %.

Solved cases (5 shown):
| Compound | cell viability [%] |
| --- | --- |
| CC(C)(CO)CCCCCCC(C)(C)CO [gemcadiol] | 113 |
| CCCC(O)C(CC)CO (centres undefined) [2-ethyl-1,3-hexanediol] | 101 |
| COc1ccc(S(=O)(=O)N2CCCN(S(=O)(=O)c3ccc(OC)c(OC)c3)CC2)cc1OC | 94.5 |
| O=C(Nc1c[nH]nc1-c1nc2ccc(CN3CCOCC3)cc2[nH]1)NC1CC1 [AT-9283] | 90.9 |
| Cc1cc(Nc2nc(N[C@@H](C)c3ncc(F)cn3)ncc2Cl)[nH]n1 [AZD1480] | 95.5 |

Your task in this section: give cell viability for each listed record.
1. Cc1c(O)c(=O)n(-c2ccccc2)n1C [4-hydroxy-phenazone]
2. Cc1cn2nc([C@@H]3CCCCN3C(=O)c3cc(Cl)ccc3NS(C)(=O)=O)cc2nc1N1CC[C@H](N)C1 [presatovir]
3. CC(=O)O[C@]1(C(C)=O)CC[C@H]2[C@@H]3CCC4=CC(=O)CCC4=C3[C@@H](c3ccc(N(C)C)cc3)C[C@@]21C [Ulipristal acetate]
4. O=S(=O)(c1cccc2c(O)nccc12)N1CCCNCC1 [hydroxyfasudil]

1: 90.2; 2: 102; 3: 98.3; 4: 94

###

# Test system: Vero E6
# Test Summary: drug sensitivity score (DSS) for viability; higher = more toxic; extreme values may be limits of the assay
# Condition Summary: 72 h
Measurement Label: drug sensitivity score
Numbers only.

| Molecule | Measurement Label | Reported Value |
| --- | --- | --- |
| Cc1ccc(Nc2ncc3c(n2)N(C)C(=O)N(c2cc(NC(=O)c4cccc(C(F)(F)F)c4)ccc2C)C3)cn1 [GNF-7] | drug sensitivity score | 17.5 |
| COc1cc(Nc2ncc3c(n2)-c2ccc(Cl)cc2C(c2c(F)cccc2OC)=NC3)ccc1C(=O)O [alisertib] | drug sensitivity score | 4.1 |
| CCN1CCN(c2ccc(Nc3cc(N(C)C(=O)Nc4c(Cl)c(OC)cc(OC)c4Cl)ncn3)cc2)CC1 [NVP-BGJ398] | drug sensitivity score | 2.4 |

Please state drug sensitivity score for every molecule in the list that follows.
1. CCc1cc(-c2[nH]nc(C)c2-c2ccc3c(c2)OCCO3)c(O)cc1O
2. C[C@]12CCC(=O)C=C1C=C[C@@H]1[C@@H]2CC[C@@]2(C)[C@H]1CC[C@@]2(O)CCC(=O)O [potassium-canrenoate]
3. CNC(=O)c1c(C)oc2cc(Oc3ncnc4cc(OC)c(OC)cc34)ccc12 [fruquintinib]
4. CCCC(O)C(CC)CO (stereo not drawn) [2-ethyl-1,3-hexanediol]
5. Cc1c(C(N)=O)cc([N+](=O)[O-])cc1[N+](=O)[O-] [dinitolmide]

1: 2.1; 2: 0; 3: 0; 4: 0.7; 5: 0
